# System: Caco-2
# experiment: Efflux ratio of permeability from basolateral to apical over apical to basolateral side in human Caco-2 cells after 21 days
# Format: ADME, cell-based
# test_parameters: caco-2, 504 h
readout_kind: Ratio

Cc1cc(C#N)nc(C)c1C(=O)N1CCC(C)(N2CCC(N3C(=O)N(C)C[C@H]3c3ccccc3)CC2)CC1 :: 25
Cc1ncnc(C)c1C(=O)N1CCC(C)(N2CCC(N3C(=O)N(CC4CCOCC4)C[C@H]3c3ccccc3)CC2)CC1 :: 29

(a) Cc1cc(C#N)nc(C)c1C(=O)N1CCC(C)(N2CCC(N3C(=O)N(C[C@H]4CC[C@H](O)CC4)C[C@H]3c3ccccc3)CC2)CC1
(b) Cc1ncnc(C)c1C(=O)N1CCC(C)(N2CCC(N3C(=O)N(C4CCOCC4)C[C@H]3c3ccccc3)CC2)CC1
(c) Cc1cc(C#N)nc(C)c1C(=O)N1CCC(C)(N2CCC(N3C(=O)N(C4CCOCC4)C[C@H]3c3ccccc3)CC2)CC1
(d) CCO[C@H]1CC[C@H](CN2C[C@@H](c3ccccc3)N(C3CCN(C4(C)CCN(C(=O)c5c(C)ncnc5C)CC4)CC3)C2=O)CC1
(e) Cc1cc(C#N)nc(C)c1C(=O)N1CCC(C)(N2CCC(N3C(=O)N(CC4CCOCC4)C[C@@H]3c3ccccn3)CC2)CC1
[ask] Hey, can you sort those compounds up there by Ratio, smallest first? Output spec: labels arranged per the requested ranking.
[reply] d, c, b, a, e

====

# reported IC20; entries follow
# system_tested: hERG (KCNH2) (Homo sapiens, UniProt Q12809)
# Sequence (Q12809 whole entry): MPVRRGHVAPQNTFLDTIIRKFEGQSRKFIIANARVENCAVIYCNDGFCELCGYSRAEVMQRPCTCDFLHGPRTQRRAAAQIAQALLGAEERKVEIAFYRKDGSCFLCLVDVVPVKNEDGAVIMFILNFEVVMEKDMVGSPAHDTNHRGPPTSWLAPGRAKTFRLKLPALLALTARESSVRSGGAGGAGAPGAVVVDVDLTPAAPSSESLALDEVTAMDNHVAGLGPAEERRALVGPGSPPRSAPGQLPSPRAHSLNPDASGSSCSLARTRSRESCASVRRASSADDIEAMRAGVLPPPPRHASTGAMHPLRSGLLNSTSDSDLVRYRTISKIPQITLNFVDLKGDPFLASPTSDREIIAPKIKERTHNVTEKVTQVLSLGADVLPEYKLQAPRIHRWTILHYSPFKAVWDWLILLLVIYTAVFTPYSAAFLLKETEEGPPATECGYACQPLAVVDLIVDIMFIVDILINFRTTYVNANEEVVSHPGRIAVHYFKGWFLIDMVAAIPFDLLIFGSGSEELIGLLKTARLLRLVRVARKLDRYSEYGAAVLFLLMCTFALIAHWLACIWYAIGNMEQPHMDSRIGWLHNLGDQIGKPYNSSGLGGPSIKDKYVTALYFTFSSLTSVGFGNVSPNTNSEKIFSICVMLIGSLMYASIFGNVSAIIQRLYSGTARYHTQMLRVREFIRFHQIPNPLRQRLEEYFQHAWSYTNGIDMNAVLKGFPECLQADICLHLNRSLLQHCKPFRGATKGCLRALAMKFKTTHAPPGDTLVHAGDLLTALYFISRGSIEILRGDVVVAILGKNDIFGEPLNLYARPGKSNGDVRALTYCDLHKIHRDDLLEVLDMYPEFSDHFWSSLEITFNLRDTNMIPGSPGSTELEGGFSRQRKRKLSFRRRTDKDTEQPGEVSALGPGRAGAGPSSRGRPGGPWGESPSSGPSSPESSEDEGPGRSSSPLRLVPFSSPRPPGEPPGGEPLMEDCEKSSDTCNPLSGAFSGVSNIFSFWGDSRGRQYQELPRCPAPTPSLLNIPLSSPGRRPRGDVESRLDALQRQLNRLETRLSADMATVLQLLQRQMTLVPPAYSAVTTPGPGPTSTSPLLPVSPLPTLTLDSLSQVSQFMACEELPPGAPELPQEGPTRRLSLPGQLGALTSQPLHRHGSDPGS
# experiment: Inhibition of human ERG by patch clamp technique
The answer is to be given in µM; state only the numeric part.

Cc1cc(C#N)nc(C)c1C(=O)N1CCC(C)(N2CCC(N3C(=O)N(C4CCOCC4)CC3c3ccccc3)CC2)CC1 (racemic) :: 3.5

Now for a further compound.
[ask] What does the data say about its IC20? Entry: Cc1ncnc(C)c1C(=O)N1CCC(C)(N2CCC(N3C(=O)N(CC4CCOCC4)CC3c3ccccc3)CC2)CC1 (racemic)
[reply] 22

====

# experiment: Clearance in rat at 1 mg/kg, iv
# Assay type: ADME, organism-based
# Set-up: dose 1 mg/kg, route intravenous
# test_parameters: in vivo
readout_kind: clearance (mL/min/kg)

(P) CCO[C@H]1CC[C@H](CN2C[C@@H](c3ccccc3)N(C3CCN(C4(C)CCN(C(=O)c5c(C)ncnc5C)CC4)CC3)C2=O)CC1
(Q) Cc1ncnc(C)c1C(=O)N1CCC(C)(N2CCC(N3C(=O)N(CC4CCOCC4)CC3c3ccccc3)CC2)CC1 (racemic)
(R) Cc1cc(C#N)nc(C)c1C(=O)N1CCC(C)(N2CCC(N3C(=O)N(CC4CCOCC4)C[C@@H]3c3ccccn3)CC2)CC1
[ask] Sort low-to-high on clearance, please. Output spec: labels arranged per the requested ranking.
[reply] R, Q, P
(R: 29 mL/min/kg, Q: 44 mL/min/kg, P: 65 mL/min/kg)

====

The compounds below have reported pIC50 for C-C chemokine receptor type 5 (Homo sapiens, UniProt P51681).
pIC50: −log10 of the molar value.
readout_kind: pIC50

CCO[C@H]1CC[C@H](CN2C[C@@H](c3ccccc3)N(C3CCN(C4(C)CCN(C(=O)c5c(C)ncnc5C)CC4)CC3)C2=O)CC1 :: 8.22

(P) Cc1cc(C#N)nc(C)c1C(=O)N1CCC(C)(N2CCC(N3C(=O)N(CC4CCOCC4)C[C@H]3c3ccccc3)CC2)CC1
(Q) Cc1ncnc(C)c1C(=O)N1CCC(C)(N2CCC(N3C(=O)N(CC4CCOCC4)CC3c3ccccc3)CC2)CC1 (racemic)
(R) CCCCC1CN(C2CCOCC2)C(=O)N1C1CCN(C2(C)CCN(C(=O)c3c(C)cc(C#N)nc3C)CC2)CC1 (racemic)
[ask] Rank by pIC50 (largest to smallest). Output spec: labels arranged per the requested ranking.
[reply] P, Q, R
(P: 7.92, Q: 7.57, R: 7.19)

(I) Cc1cc(C#N)nc(C)c1C(=O)N1CCC(C)(N2CCC(N3C(=O)N(CC4CCOCC4)C[C@@H]3c3ccccn3)CC2)CC1
(II) CO[C@H]1CC[C@H](CN2C[C@@H](c3ccccc3)N(C3CCN(C4(C)CCN(C(=O)c5c(C)ncnc5C)CC4)CC3)C2=O)CC1
(III) Cc1ncnc(C)c1C(=O)N1CCC(C)(N2CCC(N3C(=O)N(C[C@H]4CC[C@H](O)CC4)C[C@H]3c3ccccc3)CC2)CC1
[ask] Hey, can you sort those compounds up there by pIC50, smallest first? Output spec: labels arranged per the requested ranking.
[reply] II, III, I
(II: 7.21, III: 7.70, I: 7.92)
